Entry source: ChEMBL document CHEMBL5058577

- Test system: Fibroblast
- experiment.description: Multiplex assay against human fibroblast
- Assay type: toxicity, cell-based
- condition.context: 24 h, 10 µM, compound concentration 10 uM, replicate 2
Recorded Population Normal (%) by entry
Write the number in % without appending the unit.

Recorded Population Normal (%), per entry:
Query :: What Population Normal (%) value was documented for this compound, COc1cc(Nc2ncc3c(n2)-c2ccc(Cl)cc2C(c2c(F)cccc2OC)=NC3)ccc1C(=O)O ?
Result :: 94

Query :: Now the same for CN1CCN(c2ccc(Nc3c4ccccc4nc4ccccc34)cc2)CC1.Cl.Cl.O
Result :: 78

Query :: Now the same for COc1ccc2c(c1OCc1ccccc1)C[C@@H](C(=O)O)N(C(=O)C(c1ccccc1)c1ccccc1)C2
Result :: 96

Query :: Now the same for Cc1c(Cc2ccc3ccccc3n2)c2cc(F)ccc2n1CC(=O)O
Result :: 92

Query :: Now the same for CCCCC[C@H](O)/C=C/[C@H]1[C@H](O)CC(=O)[C@@H]1CCCCCCC(=O)O
Result :: 86

---
Query :: What Population Normal (%) value was documented for this compound, COC(c1ccccc1)(c1ccccc1)[C@H](Oc1nc(C)cc(C)n1)C(=O)O ?
Result :: 94

Query :: Now the same for Cc1nn(C)c2nc(NNC(=O)Nc3cc(Cl)nc(Cl)c3)cc(C(C)C)c12
Result :: 91

Query :: Now the same for OCCCNc1cc(-c2ccnc(Nc3cccc(Cl)c3)n2)ccn1
Result :: 93
